Each recorded value in this set is attributed to PubChem BioAssay (NCI).

System: UO-31 renal
Experiment: NCI tumour cell line growth inhibition, 48 h
In this section, each of the compounds is paired with its reported TGI.

{"COMPOUND": "COc1cc(-c2oc3c(OC)c(O)c(OC)c(O)c3c(=O)c2OC)ccc1O", "TGI": "85.2 µM"}
{"COMPOUND": "CCOc1ccccc1NC(=O)C1=C(C)NC(C)=C(C(=O)Nc2ccccc2OCC)C1c1ccc(NC(C)=O)cc1", "TGI": "> 100 µM"}
{"COMPOUND": "O=C1c2ccccc2-c2c1c(-c1ccccc1)c1n2C2(C(=O)c3ccccc3C2=O)C2C(=O)N(c3ccccc3)C(=O)C12 (stereo not given)", "TGI": "79.3 µM"}
{"COMPOUND": "COc1ccc(/C=C2\\CN(C)CC3C2=NC(=S)NC3c2ccc(OC)cc2)cc1 (stereo not given)", "TGI": "> 100 µM"}
{"COMPOUND": "O=Cc1ccc(O)c2ncccc12", "TGI": "36.9 µM"}

Provide TGI value for the following compound: O=P1(O)c2ccccc2Nc2cc(C(F)(F)F)ccc21
> 100 µM

Please list TGI recorded for the compound COc1cc(C2c3cc4c(cc3OC(NCc3ccccc3)C2C)OCO4)cc(OC)c1OC (stereo not given)
26.4 µM

Entry CC(=O)c1cccc(NC(=O)C(=O)C(C(=O)c2ccccc2F)C2OC(=O)c3ccccc32)c1 (stereo not given) needs its TGI filled in; supply it.
> 100 µM

Please list TGI recorded for the compound C/C(=N\NC(=S)NNC(=S)N(C)c1ccccc1)c1ccccn1
7.59 µM

Look up and state reported TGI for CS(=O)(=O)Nc1cc(-c2ccc3ncnc(Nc4ccc5c(cnn5Cc5ccccc5F)c4)c3c2)cnc1Cl
> 100 µM

====

Listing: TGI of selected compounds
Tested on: MDA-N
Assay: NCI tumour cell line growth inhibition, 48 h

{"COMPOUND": "Cc1cc(N)ccc1C=O", "OBSERVED": "> 100 µM"}
{"COMPOUND": "COc1cc(-c2oc3c(OC)c(O)c(OC)c(O)c3c(=O)c2OC)ccc1O", "OBSERVED": "> 100 µM"}
{"COMPOUND": "O=[N+]([O-])c1ccc(NC(=S)Nc2ccccn2)cc1", "OBSERVED": "> 100 µM"}

Give the measured TGI for COC(=O)CCC(C)C1CCC2C3CCC4CC5CCC4(C)C3(O5)C(Br)C(Br)C12C (centres undefined)
> 100 µM

Report TGI, nothing else, for this compound: O=C(CN1CCOCC1)Nc1ccc2c(c1)C1Oc3ccccc3CC1CO2 (centres undefined)
> 100 µM

For the compound CC1CC(C)(O)CC(C(O)CC2CC(=O)NC(=O)C2)C1=O (centres undefined) , give its reported TGI.
1.16 µM

Give me measured TGI, please, for this compound: CC(C)(C)[Si](C)(C)OCC#C[C@@]1(O)CCCCC1CC(Sc1ccccc1)Sc1ccccc1 (some centres undefined)
37.7 µM

# return recorded TGI for input C/C=C/C=C\C1OC(O)([C@H](CC)C(=O)NC/C=C/C=C(\C)[C@H](OC)C(C)C2OC(\C=C/C=C/C=C(\C)C(=O)c3c(O)ccn(C)c3=O)[C@H](O)[C@@H]2O)C(O)C(O)C1(C)C (some centres undefined)
> 100 µM

Identify TGI associated with the compound Clc1nc(Cl)c(Cc2ccccc2)c(Cl)n1
12.5 µM

Return the recorded TGI value; entry: Cc1cc(-c2nc3cc(O)ccc3s2)ccc1N
> 100 µM
